System: Human immunodeficiency virus 1
Experiment: Antiviral activity against HIV1 harboring K103 N mutant infected in human MT4 cells assessed as protection against virus-induced cytopathicity
Assay type: functional, organism-based
Conditions: Human immunodeficiency virus 1, MT4
pEC50: −log10 of the molar value.
Parameter Measured: pEC50

>>> df
                                 smiles_str  recorded_result
0  O=c1[nH]c(=O)n(COCc2ccccc2)c(Sc2ccncc2)c1C1CC1             4.62
1  Cc1cn([C@H]2C[C@H](N=[N+]=[N-])[C@@H](CO)O2)c(=O)[nH]c1=O             7.59
2  COc1cccc(OC)c1Sc1c(C2CC2)c(=O)[nH]c(=O)n1COCc1ccccc1           < 3.55
3  Cc1ccc(Sc2c(C3CC3)c(=O)[nH]c(=O)n2COCc2ccccc2)cc1           < 4.50
4  Cc1ccc(Sc2c(C3CC3)c(=O)[nH]c(=O)n2COCc2ccccc2)c(C)c1           < 4.49

I am curious: what pEC50 value has been reported for COc1ccccc1Sc1c(C2CC2)c(=O)[nH]c(=O)n1COCc1ccccc1 ?
≤ 5.03

I am curious: what pEC50 value has been reported for O=c1[nH]c(=O)n(COCc2ccccc2)c(Sc2ccc(Cl)cc2Cl)c1C1CC1 ?
< 4.52
